Test system: Plasmodium falciparum
Method description: Screen against P. falciparum Asexual Blood Stage (ABS), at 5uM
Format: functional, Dd2
Setup conditions: tested at 5 uM
The whole screen tested about 65,000 compounds, of which about 2,100 (3.2%) showed an effect of 50% or more. The median lay at about -52%. Only a selection was taken, and strong results are over-represented in it overall.
The threshold is -20%. Values of INHIBITION beneath it are tagged Criterion met; values meeting or exceeding it are tagged Criterion not met.

Solved entries:
Cc1csc2c(N3CCC(NCCCc4ccncc4)CC3)ncnc12 | Criterion not met
CC(=O)Nc1cccc(OCCNC(=O)N(C)Cc2ccccc2)c1 | Criterion met
COCCNC(=O)Nc1cccc2c1CCN(S(C)(=O)=O)C2 | Criterion not met

(Q) # check: INHIBITION < -20% for Cc1csc2c(N3CCC(NCCc4ccnn4C)CC3)ncnc12
(A) Criterion not met

(Q) # check: INHIBITION < -20% for CC(=O)N1CCC(c2nc3ccc(-c4cccc(F)c4)cn3n2)CC1
(A) Criterion met

(Q) # check: INHIBITION < -20% for CCCN1CCC(NCc2ccncc2)CC1
(A) Criterion met

---

System: Plasmodium falciparum
Method description: Screen against P. falciparum Asexual Blood Stage (ABS), at 5uM
Assay type: functional, Dd2
Setup conditions: tested at 5 uM
In all, about 65,000 compounds went through this assay and about 2,100 (3.2%) showed an effect of 50% or more. The median lay at about -52%. The entries come from a sample that favours strong results as a whole.
Assay endpoint: INHIBITION (%)
Answers are plain numbers, in %.

COc1cccc(CN2CCCC(Nc3cccc(F)c3)C2)c1O (stereo not drawn) | 67.3
NC(=O)c1cc(C2CCCN(CCCOc3ccc(F)cc3)C2)n[nH]1 (stereo not drawn) | -96.5
Nc1cc(N2CCOCC(Cc3ccc4[nH]ccc4c3)C2)ncn1 (stereo not drawn) | -6.79
CN(C)c1nc(N)nc(CN2CCCC2c2cccs2)n1 (stereo not drawn) | 52

Give INHIBITION for all compounds that follow.
1. COc1ccc(NC2CCCN(Cc3cnc(N(C)C)s3)C2)cc1OC (stereo not drawn)
2. O=C1N[C@@H]2CCN(C(=O)C3CCCC3)[C@@H]2C(=O)N1c1ccc(F)cc1
3. COc1cccc(CNc2ccc(F)c(Cl)c2)c1O
4. NC(=O)c1cc(C2CCCN(CCOc3ccc(F)cc3)C2)n[nH]1 (stereo not drawn)

(A)
1. -54.2
2. 56.1
3. -117
4. 52.4

Give INHIBITION for all compounds that follow.
1. c1ccc(C2CCCN(Cc3cc4n(n3)CCNC4)CC2)cc1 (stereo not drawn)
2. O=C1N[C@@H]2CCN(C(=O)C3CC3)[C@@H]2C(=O)N1c1ccc(F)cc1
3. Cc1c(C)n(CC(O)CN2CCC(O)CC2)c2c(Cl)cccc12 (stereo not drawn)
4. O=C1N[C@@H]2CCN(C(=O)C3CCC3)[C@@H]2C(=O)N1c1ccc(F)cc1
5. Cc1ccc(OCCN2CCCC(c3cc(C(N)=O)[nH]n3)C2)cc1 (stereo not drawn)
6. COCC(=O)N[C@@H]1CN(Cc2ccc3c(c2)OCCO3)C[C@H]1O
7. CN(C)c1nc(N)nc(CN2CCCC2c2ccsc2)n1 (stereo not drawn)

(A)
1: 37.2; 2: -99.9; 3: 44.9; 4: 32; 5: -109; 6: -66.5; 7: 26.9

Give INHIBITION for all compounds that follow.
1. Cc1cc(C(=O)N2CCc3nc(N4CCOCC4)nc(C)c3C2)c(C)o1
2. COc1cccc(O)c1CN1CCCC(Nc2cccc(F)c2)C1 (stereo not drawn)
3. Fc1ccc(NC2CCCN(Cc3ccncc3)C2)cc1 (stereo not drawn)
4. CN1CCCC(CCCc2cccnc2)(C(N)=O)C1 (stereo not drawn)

(A)
[-39.6, 51.3, -65.4, -103]

Give INHIBITION for all compounds that follow.
1. O=S(=O)(c1ccccc1)N1CCC2(CCCN2Cc2cccnc2)C1 (stereo not drawn)
2. CN(C)c1nc(N)nc(CN2CCC(c3nc4ccccc4o3)CC2)n1
3. COCC(=O)N1CCCC(c2cc(C(F)F)n3ncnc3n2)C1 (stereo not drawn)
4. Cc1cc(NC(=O)NCc2cccnc2OC2CCCC2)n(C)n1

(A)
1. -12
2. 7.31
3. 10.4
4. -37

---

For each of the compounds below, state its INHIBITION.
System: Plasmodium falciparum
Method description: Screen against P. falciparum Asexual Blood Stage (ABS), at 5uM
Assay type: functional, Dd2
Setup conditions: tested at 5 uM
About 2,100 (3.2%) of roughly 65,000 compounds showed an effect of 50% or more. The median lay at about -52%. The list comes from a sample in which strong results are over-represented; it also holds close analogues and randomly drawn compounds.
Give bare numbers, in %.

The following compounds have reported results that may help.
Cc1cnn(CCNCc2csc(-c3cccs3)n2)c1 | -51.7
CC(=O)N[C@H]1CN(S(=O)(=O)N(C)Cc2ccccc2)C[C@@H]1C1CC1 | -59.7
CCOCC1CN(C(=O)C2=CCCC2)Cc2cnn(C)c21 (centres undefined) | -16.8
COCCCNC(=O)CN1CCC(N2CCN(C)C2=O)CC1 | -137
COc1c(CNC2CCCOc3ccc(F)cc32)c(C(C)C)nn1C (centres undefined) | 38.8
CCN(C)CC(=O)N1CCc2nc(NC)nc(C(=O)N3CCCC3)c2C1 | -14.4
c1nn(C2CCCCC2)cc1-c1cncn1CCCN1CCCCC1 | 62.1
CC(C)c1noc(CN(Cc2ccccc2)C2CC2)n1 | -119

Give INHIBITION for all compounds that follow.
1. COCC1CN(c2ncccn2)Cc2cnn(CC3CC3)c21 (centres undefined)
2. COc1c(CNCC(O)c2cccc(F)c2)c(C(C)C)nn1C (centres undefined)

(A)
1: -16.5; 2: 63.5

Give INHIBITION for all compounds that follow.
1. CN(C)c1nc2c(c(N3CCC4(CC3)CNC(=O)C4)n1)CCCC2
2. COc1c(CNCC(O)c2cccc(F)c2)c(C)nn1C (centres undefined)
3. COc1c(CNC2CCOc3c(Cl)cccc32)c(C)nn1C (centres undefined)
4. Cc1cnn(CCNCc2csc(-c3ccc(F)cc3)n2)c1
5. Cc1oc(-c2ccccc2)nc1CN1CCC(c2ccnn2C)CC1
6. Cc1cnn(CCNCc2csc(-c3ccc(C)o3)n2)c1
7. CC(C)N(C)Cc1cnc2n1CCN(C(=O)Cc1ccccn1)C2

(A)
[-6.41, -92.7, 10.1, -58, -18.9, -32.6, -6.41]

Give INHIBITION for all compounds that follow.
1. CN1CCCCC12CCN(C(=O)c1cccn1C)CC2
2. Cc1cnn(CC(C)NCc2csc(-c3ccco3)n2)c1 (centres undefined)
3. O=C(CCc1ccccn1)N1CCCC(n2cncn2)C1 (centres undefined)
4. Cc1cnn(CCNCc2csc(-c3ccccc3)n2)c1
5. CN(Cc1ccccc1)S(=O)(=O)N1C[C@@H](C(=O)O)[C@H](C2CC2)C1
6. CNC(=O)CNC1CC2(CCN(c3ncccn3)CC2)c2ccccc21 (centres undefined)

(A)
1: -27; 2: -84; 3: -46.3; 4: 66.6; 5: -76.5; 6: -84.5

Give INHIBITION for all compounds that follow.
1. CN(C)Cc1ccc(C(=O)N2CCCC(COc3ccc(F)cc3)C2)o1 (centres undefined)
2. CC(Cn1cncc1-c1cnn(C2CCCCC2)c1)N1CCCCC1 (centres undefined)
3. Cn1cc(CN2C[C@H]3CCC[C@@]3(COCC3CC3)C2)cn1
4. Nc1cc2c(nn1)CCN(C(=O)CCCC1CCCCC1)C2
5. Fc1ccc(CNCc2nnc3n2CC(C(F)(F)F)CC3)c(F)c1 (centres undefined)
6. CN1CCc2nc(C3CCN(C(=O)CCC4CCCC4)CC3)ncc2C1
7. CC1N(C)C(=O)COC12CCN(Cc1ccsc1)CC2 (centres undefined)
8. CC(C)C(=O)N1CCC2(CC1)COCCN2Cc1ccc(F)cc1

(A)
17.1
13.6
54.1
-83.9
-35
-37.6
-52.9
-29.9

---

For each of the compounds below, state its INHIBITION.
Test system: Plasmodium falciparum
Method description: Screen against P. falciparum Asexual Blood Stage (ABS), at 5uM
Assay type: functional, Dd2
Setup conditions: tested at 5 uM
The campaign covered roughly 65,000 compounds. About 2,100 (3.2%) showed an effect of 50% or more. The median lay at about -52%. The sample as a whole holds a higher share of strong results than the screen did.
Numbers only, in %.

The following compounds have reported results that may help.
CN1CCCN(c2nc(C3CC3)ns2)CC1 | -0.753
CC(C#N)CSc1ccccc1NCC(=O)NC(C1CC1)C1CC1 (stereo not given) | 56.3
COCCN(CC1CCCN(C2Cc3ccccc3C2)C1)C(=O)CSC (stereo not given) | 1.3
COc1cc(CNCc2c(C(C)C)nn(C)c2N(C)C)ccn1 | -67.4
COc1cc2c(cc1CN1CCCCC1CN1CCOCC1)CCC2 (stereo not given) | 65.9
CCc1nnc2n1CCN(C(C(=O)NC1CC1)c1ccccc1)C2 (stereo not given) | -119
COc1cc(F)ccc1-c1cc(N)ccn1 | 52.7
CCS(=O)(=O)NC[C@]12COC[C@H]1CN(Cc1ccsc1)C2 | 19.6
COc1ccc(C2Nc3cc(Cl)ccc3C3=NCCN32)cc1OC (stereo not given) | 72.2
COCCN(CC1CCCN(C2Cc3ccccc3C2)C1)C(=O)COC (stereo not given) | 39.5

Give INHIBITION for all compounds that follow.
1. CCOc1ccnc(N2CCCN(c3nc(CC)ns3)CC2)n1
2. Cc1ccc(CN2CCS(=O)(=O)C(C)(C)C2)cc1C
3. CC(Cn1cccn1)NCc1ccc(OCc2ccncc2)cc1 (stereo not given)
4. COc1cccc(CN2CCCCC2CN2CCOCC2)c1F (stereo not given)

(A)
1. -63.7
2. -98.2
3. -96.3
4. 4.8
